- Experimental target: T1, recombinant human MSLN (human, UniProt Q13421 296-580, limits assumed)
- T1 construct: It was fixed to an anti-Penta His (HIS1K) sensor, so a His tag is implied; also called recombinant MSLN; mesothelin
- T1 sequence (Q13421 other isoform, or with tags, fused parts or gaps limits assumed): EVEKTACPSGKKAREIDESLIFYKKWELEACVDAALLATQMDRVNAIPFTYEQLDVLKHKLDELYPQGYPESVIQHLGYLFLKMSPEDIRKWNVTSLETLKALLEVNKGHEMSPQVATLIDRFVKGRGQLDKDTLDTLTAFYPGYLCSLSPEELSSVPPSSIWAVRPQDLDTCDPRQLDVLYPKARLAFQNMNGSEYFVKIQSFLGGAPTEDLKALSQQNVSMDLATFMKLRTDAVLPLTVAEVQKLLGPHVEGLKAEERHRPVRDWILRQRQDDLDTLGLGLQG
- Assay info: BLI (Octet), MSLN on anti-Penta His sensor, antibody 3.125-50 nM
Listed here: items and their measured koff.
Respond with the bare value in s⁻¹.

Use these answered entries as a reference point.
HMI323VL-1/HMI323VH-2 (antibody, human IgG1, kappa, V domains shown, also called humanized MI323 IgG1 (VL-1/VH-2)) VH: QVQLVQSGAEVKKPGSSVKVSCKASGYSFTSYFISWVRQAPGQGLEWMGGIFPGSGNANYAQKFQGRVTITADESTSTAYMELSSLRSEDTAVYYCARSGGYQYYFDYWGQGTLVTVSS VL: DIQMTQSPSSLSASVGDRVTITCRASQDVSTAVAWYQQKPGKAPKLLIYSASYRYPGVPSRFSGSGSGTDFTLTISSLQPEDFATYYCQQHYSTPWTFGGGTKLEIKR    0.000509
mouse/human chimeric MI323 IgG1 (antibody, V domains shown, Control antibody; also called mouse human chimeric MI323 IgG1 antibody; MI323 antibody) VH: EVQLQQSGPELVKPGTSVKISCKASGYSFTSYFIQWVKQRPGQGLEWIGWIFPGSGNTKYNEMFKGKATLAADTSSSTAYMQLSSLTSEDSAVYFCARSGGYQYYFDYWGQGTSVTVSS VL: DIVMTQSHKFMSTSVGDRVSITCKASQDVSTAVAWYQQKPGQSPKLLIYSASYRYPGVPDRFTGSGSGTDFTFTISSVQAEDLALYYCQQHYSTPWTFGGGTKLEIKR    1.3e-05

Incoming: # query: koff of entry HMI323VL-1/HMI323VH-1 (antibody, human IgG1, kappa, V domains shown, also called humanized MI323 IgG1 (VL-1/VH-1)) VH: QVQLVQSGAEVKKPGASVKVSCKASGYSFTSYFMHWVRQAPGQRLEWMGWIFPGNGNTKYSQKFQGRVTITRDTSASTAYMELSSLRSEDTAVYYCARSGGYQYYFDYWGQGTLVTVSS VL: DIQMTQSPSSLSASVGDRVTITCRASQDVSTAVAWYQQKPGKAPKLLIYSASYRYPGVPSRFSGSGSGTDFTLTISSLQPEDFATYYCQQHYSTPWTFGGGTKLEIKR
Outgoing: 9.25e-05
